experimental.target: T1, human TGFβ1 (human, UniProt P01137 279-390)
T1 construct: also called TGFβ1 homodimer
T1 sequence (P01137 279-390 limits assumed): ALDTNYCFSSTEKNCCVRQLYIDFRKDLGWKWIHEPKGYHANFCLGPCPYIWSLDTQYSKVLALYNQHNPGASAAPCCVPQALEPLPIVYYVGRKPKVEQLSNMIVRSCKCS
protocol.details: Biacore off-rate vs wt GC1008, 50 nM
Give 1 (yes) when the value for kd var/kd wt is at least 2. Give 0 (no) when it is less.

* I54R (antibody, V domains shown, GC1008 IgG4 variant) VH: QVQLVQSGAEVKKPGSSVKVSCKASGYTFSSNVISWVRQAPGQGLEWMGGVIPRVDIANYAQRFKGRVTITADESTSTTYMELSSLRSEDTAVYYCASTLGLVLDAMDYWGQGTLVTVSS VL: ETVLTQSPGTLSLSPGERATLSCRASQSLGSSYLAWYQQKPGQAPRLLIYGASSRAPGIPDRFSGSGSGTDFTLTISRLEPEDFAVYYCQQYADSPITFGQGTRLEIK | 1 (yes)
* N32G (antibody, V domains shown, GC1008 IgG4 variant) VH: QVQLVQSGAEVKKPGSSVKVSCKASGYTFSSGVISWVRQAPGQGLEWMGGVIPIVDIANYAQRFKGRVTITADESTSTTYMELSSLRSEDTAVYYCASTLGLVLDAMDYWGQGTLVTVSS VL: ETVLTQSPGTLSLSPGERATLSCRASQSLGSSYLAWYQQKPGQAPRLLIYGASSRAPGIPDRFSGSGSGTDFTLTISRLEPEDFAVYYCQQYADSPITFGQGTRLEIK | 0 (no)

Q: Reported kd var/kd wt reaches at least 2 for Y27K (antibody, V domains shown, GC1008 IgG4 variant) VH: QVQLVQSGAEVKKPGSSVKVSCKASGKTFSSNVISWVRQAPGQGLEWMGGVIPIVDIANYAQRFKGRVTITADESTSTTYMELSSLRSEDTAVYYCASTLGLVLDAMDYWGQGTLVTVSS VL: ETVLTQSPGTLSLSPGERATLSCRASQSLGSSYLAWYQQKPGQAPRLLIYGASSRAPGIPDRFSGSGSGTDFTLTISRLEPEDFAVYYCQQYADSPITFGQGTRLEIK ?
Ans: 0 (no)

Q: Reported kd var/kd wt reaches at least 2 for E74L (antibody, V domains shown, GC1008 IgG4 variant) VH: QVQLVQSGAEVKKPGSSVKVSCKASGYTFSSNVISWVRQAPGQGLEWMGGVIPIVDIANYAQRFKGRVTITADLSTSTTYMELSSLRSEDTAVYYCASTLGLVLDAMDYWGQGTLVTVSS VL: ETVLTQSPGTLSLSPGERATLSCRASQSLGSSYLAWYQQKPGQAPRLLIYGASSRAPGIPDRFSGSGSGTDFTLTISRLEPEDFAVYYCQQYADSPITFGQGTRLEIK ?
Ans: 0 (no)
